# MEASUREMENT DESCRIPTION: basal CRE-LacZ reporter activity in PC12 – cell-based, unstimulated, primary screen (AID 1145)
# EXPERIMENTAL CONDITIONS: no forskolin, luminescence, 4.5 h, higher = more signal, called active from +8 up or from −8 down
Think of 0.3 as a floor: if z-score stands on it or above, it is YES; beneath it, NO.

COMPOUND: COC(=O)[C@@]1(Cc2ccc(F)cc2)[C@H]2c3cc(C(=O)N(C)C)n(CCc4ccc(O)c(O)c4)c3C[C@H]2CN1C(=O)c1ccccc1
LABEL VALUE: YES
//
COMPOUND: CN1C(=O)C2C=CC(C(O)c3ccc(-c4ccccc4)s3)N(NC(=O)OC(C)(C)C)C2C1=O (configuration not stated)
LABEL VALUE: YES
//
COMPOUND: COC(=O)[C@]1(CCC(=O)OC(C)(C)C)N=C(c2ccc(OCCCO)cc2)O[C@@H]1c1ccccc1N=[N+]=[N-]
LABEL VALUE: YES
//
COMPOUND: O=C1O[C@H](c2ccccc2)[C@H](c2ccccc2)N2[C@H]1[C@@H](C(=O)O)[C@]1(C(=O)Nc3ccc(C#CCCO)cc31)[C@H]2c1ccc(OCCO)cc1
LABEL VALUE: YES
//
COMPOUND: COCCOC(=O)N1C(=O)[C@@]2(c3cc(C#CCC(C(=O)OC)C(=O)OC)ccc31)[C@H](c1ccc(O)cc1)N1[C@H](c3ccccc3)[C@H](c3ccccc3)OC(=O)[C@H]1[C@@H]2C(=O)Nc1nc2ccccc2s1
LABEL VALUE: NO
//
COMPOUND: C=CC1c2cc(O)c(OC)cc2CCN1C (configuration not stated)
LABEL VALUE: NO
//
COMPOUND: CCCCC(O)C1C=CC2C(=O)N(c3ccccc3)C(=O)C2N1Nc1ccccc1 (configuration not stated)
LABEL VALUE: NO

----------
# MEASUREMENT TARGET: E3 ubiquitin-protein ligase XIAP (Homo sapiens)
# MEASUREMENT DESCRIPTION: small molecules binding XIAP protein – biophysical, small-molecule microarray, fluorescence 635 nm, primary screen (AID 1181);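 further: score merges 667 nm emission and signal to noise over triplicate slides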
# EXPERIMENTAL CONDITIONS: higher = more signal
Think of -0.002 as a floor: if composite z-score stands on it or above, it is 1; beneath it, -1.

COMPOUND: O=C1O[C@H](Cc2ccccc2)[C@@H]2[C@H]3C=CCCC=C3CN2[C@H]1Cc1ccc(O)cc1
LABEL VALUE: 1

COMPOUND: CCCNC(=O)[C@@]1(c2ccc([N+](=O)[O-])cc2)CC(=O)N(C(C)C)[C@@H]1c1ccc(CO)cc1
LABEL VALUE: 1

COMPOUND: CC(C)N1C(=O)c2ccccc2[C@](C)(C(=O)NCC(F)(F)F)[C@@H]1c1ccc(CO)cc1
LABEL VALUE: -1

COMPOUND: O=C1[C@H]2C=C(I)[C@H](C[C@@H]2c2ccccc2)[C@@]12CO2
LABEL VALUE: -1

COMPOUND: CC(C)(C)OC(=O)CC[C@]1(C(=O)NCC(O)CO)N=C(c2ccc(OCCCO)cc2)O[C@H]1c1ccccc1N=[N+]=[N-] (some centres not stated)
LABEL VALUE: 1

COMPOUND: C=CCOC(=O)[C@H]1[C@@H]2C(=O)O[C@@H](c3ccccc3)[C@@H](c3ccccc3)N2[C@@H](c2ccc(OCCOC(=O)[C@H]3C[C@H]4C(=O)N[C@@H](CC(C)C)C(=O)N4[C@H]3c3ccc(O)cc3)cc2)[C@]12C(=O)Nc1ccccc12
LABEL VALUE: -1

COMPOUND: CC(C)(C)N1CC=CC23O[C@@H]4/C=C\CCCOC(=O)C4[C@H]2C(=O)N(CCCCCO)[C@@H]3C1=O (some centres not stated)
LABEL VALUE: -1
